Test: Cytotoxicity against human Raji cells assessed as cell viability at 1000 molar ratio by trypan blue staining method
Format: cell-based
Conditions: read-out: Activity

[
  {
    "COMPOUND": "COc1cc(/C=C/C(O)/C=C(O)/C=C/c2ccc(OC(=O)CC(=O)O[C@@H]3CC[C@]4(C)[C@H]5CC[C@H]6[C@@](C)(CC[C@H]7C(C)(C)[C@@H](OC)CC[C@@]76C)CC5=CC[C@H]4C3(C)C)c(OC)c2)ccc1O (some centres undefined)",
    "viability at 1000 molar ratio": "60%"
  },
  {
    "COMPOUND": "COc1cc(/C=C/C(O)=C/C(O)/C=C/c2ccc(OC(=O)CC(=O)O[C@@H]3CC[C@]4(C)[C@H]5CC[C@H]6[C@@](C)(CC[C@H]7C(C)(C)[C@H](OC)CC[C@@]76C)CC5=CC[C@H]4C3(C)C)c(OC)c2)ccc1OC(=O)CC(=O)O[C@@H]1CC[C@]2(C)[C@H]3CC[C@H]4[C@@](C)(CC[C@H]5C(C)(C)[C@H](OC)CC[C@@]54C)CC3=CC[C@H]2C1(C)C (some centres undefined)",
    "viability at 1000 molar ratio": "60%"
  },
  {
    "COMPOUND": "CO[C@H]1CC[C@@]2(C)[C@@H](CC[C@@]3(C)CC4=CC[C@H]5C(C)(C)[C@H](OC(N)=O)CC[C@]5(C)[C@H]4CC[C@@H]32)C1(C)C",
    "viability at 1000 molar ratio": "60%"
  },
  {
    "COMPOUND": "CO[C@@H]1CC[C@@]2(C)[C@@H](CC[C@@]3(C)CC4=CC[C@H]5C(C)(C)[C@H](OC(=O)CCC(=O)Oc6coc(CO)cc6=O)CC[C@]5(C)[C@H]4CC[C@@H]32)C1(C)C",
    "viability at 1000 molar ratio": "70%"
  }
]

---

Assay: Inhibition of TPA-induced EBV-early antigen activation in human Raji cells assessed as EA activation after 48 hrs
Assay type: cell-based, human gammaherpesvirus 4
Rule: measured IC50 below 400 molar ratio gets satisfied; anything equal to or greater than 400 molar ratio gets not satisfied.

[
  {
    "COMPOUND": "CO[C@@H]1CC[C@@]2(C)[C@@H](CC[C@@]3(C)CC4=CC[C@H]5C(C)(C)[C@H](OC(=O)CCC(=O)Oc6coc(CO)cc6=O)CC[C@]5(C)[C@H]4CC[C@@H]32)C1(C)C",
    "CLASS_LABEL": "satisfied"
  },
  {
    "COMPOUND": "COc1cc(/C=C/C(O)/C=C(O)/C=C/c2ccc(OC(=O)CC(=O)O[C@@H]3CC[C@]4(C)[C@H]5CC[C@H]6[C@@](C)(CC[C@H]7C(C)(C)[C@H](OC)CC[C@@]76C)CC5=CC[C@H]4C3(C)C)c(OC)c2)ccc1O (stereo partly drawn)",
    "CLASS_LABEL": "satisfied"
  },
  {
    "COMPOUND": "CO[C@H]1CC[C@@]2(C)[C@@H](CC[C@@]3(C)CC4=CC[C@H]5C(C)(C)[C@H](OC(=S)Nc6ccccc6)CC[C@]5(C)[C@H]4CC[C@@H]32)C1(C)C",
    "CLASS_LABEL": "not satisfied"
  },
  {
    "COMPOUND": "COc1cc(/C=C/C(O)/C=C(O)/C=C/c2ccc(OC(=O)CCC(=O)O[C@@H]3CC[C@]4(C)[C@H]5CC[C@H]6[C@@](C)(CC[C@H]7C(C)(C)[C@@H](OC)CC[C@@]76C)CC5=CC[C@H]4C3(C)C)c(OC)c2)ccc1O (stereo partly drawn)",
    "CLASS_LABEL": "not satisfied"
  },
  {
    "COMPOUND": "CC1(C)CC[C@]2(C(=O)O)CC[C@]3(C)C(=CC[C@@H]4[C@@]5(C)CC[C@H](O)C(C)(C)[C@@H]5CC[C@]43C)[C@@H]2C1",
    "CLASS_LABEL": "not satisfied"
  },
  {
    "COMPOUND": "CO[C@H]1CC[C@@]2(C)[C@@H](CC[C@@]3(C)CC4=CC[C@H]5C(C)(C)[C@H](OC(=O)CCl)CC[C@]5(C)[C@H]4CC[C@@H]32)C1(C)C",
    "CLASS_LABEL": "not satisfied"
  },
  {
    "COMPOUND": "COc1cc(/C=C/C(O)/C=C(O)/C=C/c2ccc(OC(=O)CC(=O)O[C@@H]3CC[C@]4(C)[C@H]5CC[C@H]6[C@@](C)(CC[C@H]7C(C)(C)[C@@H](OC)CC[C@@]76C)CC5=CC[C@H]4C3(C)C)c(OC)c2)ccc1O (stereo partly drawn)",
    "CLASS_LABEL": "satisfied"
  }
]

---

Catalogue of viability at 1000 molar ratio readings, one per entry.
Experiment: Cytotoxicity against human Raji cells assessed as cell viability at 1000 molar ratio by trypan blue staining method
Type: cell-based
Conditions: read-out: Activity
RECORDED_METRIC: viability at 1000 molar ratio

[
  {
    "MOLECULE": "CO[C@@H]1CC[C@@]2(C)[C@@H](CC[C@@]3(C)CC4=CC[C@H]5C(C)(C)[C@H](OC(=O)CCC(=O)Oc6ccc(-c7oc8cc(O)cc(O)c8c(=O)c7O)cc6O)CC[C@]5(C)[C@H]4CC[C@@H]32)C1(C)C",
    "ENDPOINT_VALUE": "60%"
  },
  {
    "MOLECULE": "COc1cc(/C=C/C(O)=C/C(O)/C=C/c2ccc(OC(=O)CCC(=O)O[C@@H]3CC[C@]4(C)[C@H]5CC[C@H]6[C@@](C)(CC[C@H]7C(C)(C)[C@H](OC)CC[C@@]76C)CC5=CC[C@H]4C3(C)C)c(OC)c2)ccc1OC(=O)CCC(=O)O[C@@H]1CC[C@]2(C)[C@H]3CC[C@H]4[C@@](C)(CC[C@H]5C(C)(C)[C@H](OC)CC[C@@]54C)CC3=CC[C@H]2C1(C)C (some centres not stated)",
    "ENDPOINT_VALUE": "60%"
  }
]

---

Assay: Cytotoxicity against human Raji cells assessed as cell viability at 1000 molar ratio by trypan blue staining method
Format: cell-based
Details: read-out: Activity
Catalogue of viability at 1000 molar ratio readings, one per entry.

[
  {
    "COMPOUND": "CO[C@H]1CC[C@@]2(C)[C@@H](CC[C@@]3(C)CC4=CC[C@H]5C(C)(C)[C@H](OC(=O)CCC(=O)Oc6coc(CO)cc6=O)CC[C@]5(C)[C@H]4CC[C@@H]32)C1(C)C",
    "viability at 1000 molar ratio (%)": 70
  },
  {
    "COMPOUND": "CO[C@H]1CC[C@@]2(C)[C@@H](CC[C@@]3(C)CC4=CC[C@H]5C(C)(C)[C@H](OC(=O)CCC(=O)Oc6ccc(-c7oc8cc(O)cc(O)c8c(=O)c7O)cc6O)CC[C@]5(C)[C@H]4CC[C@@H]32)C1(C)C",
    "viability at 1000 molar ratio (%)": 60
  },
  {
    "COMPOUND": "COc1cc(/C=C/C(O)/C=C(O)/C=C/c2ccc(OC(=O)CC(=O)O[C@@H]3CC[C@]4(C)[C@H]5CC[C@H]6[C@@](C)(CC[C@H]7C(C)(C)[C@H](OC)CC[C@@]76C)CC5=CC[C@H]4C3(C)C)c(OC)c2)ccc1O (stereo partly specified)",
    "viability at 1000 molar ratio (%)": 60
  },
  {
    "COMPOUND": "COc1cc(/C=C/C(O)/C=C(O)/C=C/c2ccc(OC(=O)CCC(=O)O[C@@H]3CC[C@]4(C)[C@H]5CC[C@H]6[C@@](C)(CC[C@H]7C(C)(C)[C@@H](OC)CC[C@@]76C)CC5=CC[C@H]4C3(C)C)c(OC)c2)ccc1O (stereo partly specified)",
    "viability at 1000 molar ratio (%)": 60
  },
  {
    "COMPOUND": "COc1cc(/C=C/C(O)/C=C(O)/C=C/c2ccc(OC(=O)CCC(=O)O[C@@H]3CC[C@]4(C)[C@H]5CC[C@H]6[C@@](C)(CC[C@H]7C(C)(C)[C@H](OC)CC[C@@]76C)CC5=CC[C@H]4C3(C)C)c(OC)c2)ccc1O (stereo partly specified)",
    "viability at 1000 molar ratio (%)": 60
  },
  {
    "COMPOUND": "CO[C@H]1CC[C@@]2(C)[C@@H](CC[C@@]3(C)CC4=CC[C@H]5C(C)(C)[C@H](OC(=S)Nc6ccccc6)CC[C@]5(C)[C@H]4CC[C@@H]32)C1(C)C",
    "viability at 1000 molar ratio (%)": 60
  }
]

---

Catalogue of IC50 readings, one per entry.
Assay: Inhibition of TPA-induced EBV-early antigen activation in human Raji cells assessed as EA activation after 48 hrs
Type: cell-based, human gammaherpesvirus 4

[
  {
    "COMPOUND": "CO[C@H]1CC[C@@]2(C)[C@@H](CC[C@@]3(C)CC4=CC[C@H]5C(C)(C)[C@H](OC(=O)Nc6ccccc6)CC[C@]5(C)[C@H]4CC[C@@H]32)C1(C)C",
    "UNITS_SYMBOL": "molar ratio",
    "IC50": 459
  },
  {
    "COMPOUND": "COc1cc(/C=C/C(O)=C/C(O)/C=C/c2ccc(OC(=O)CCC(=O)O[C@@H]3CC[C@]4(C)[C@H]5CC[C@H]6[C@@](C)(CC[C@H]7C(C)(C)[C@H](OC)CC[C@@]76C)CC5=CC[C@H]4C3(C)C)c(OC)c2)ccc1OC(=O)CCC(=O)O[C@@H]1CC[C@]2(C)[C@H]3CC[C@H]4[C@@](C)(CC[C@H]5C(C)(C)[C@H](OC)CC[C@@]54C)CC3=CC[C@H]2C1(C)C (stereo partly drawn)",
    "UNITS_SYMBOL": "molar ratio",
    "IC50": 462
  },
  {
    "COMPOUND": "COc1cc(/C=C/C(=O)CC(O)/C=C/c2ccc(OC(=O)CC(=O)O[C@@H]3CC[C@]4(C)[C@H]5CC[C@H]6[C@@](C)(CC[C@H]7C(C)(C)[C@@H](OC)CC[C@@]76C)CC5=CC[C@H]4C3(C)C)c(OC)c2)ccc1OC(=O)CC(=O)O[C@@H]1CC[C@]2(C)[C@H]3CC[C@H]4[C@@](C)(CC[C@H]5C(C)(C)[C@@H](OC)CC[C@@]54C)CC3=CC[C@H]2C1(C)C (stereo partly drawn)",
    "UNITS_SYMBOL": "molar ratio",
    "IC50": 338
  }
]
